Origin of the recorded values: patent EP4786492A1

Molecular target: human delta-like ligand 3 (DLL3) on SHP77 cells (human) (UniProt Q9NYJ7)
Sequence (Q9NYJ7 27-618, stated change not applied): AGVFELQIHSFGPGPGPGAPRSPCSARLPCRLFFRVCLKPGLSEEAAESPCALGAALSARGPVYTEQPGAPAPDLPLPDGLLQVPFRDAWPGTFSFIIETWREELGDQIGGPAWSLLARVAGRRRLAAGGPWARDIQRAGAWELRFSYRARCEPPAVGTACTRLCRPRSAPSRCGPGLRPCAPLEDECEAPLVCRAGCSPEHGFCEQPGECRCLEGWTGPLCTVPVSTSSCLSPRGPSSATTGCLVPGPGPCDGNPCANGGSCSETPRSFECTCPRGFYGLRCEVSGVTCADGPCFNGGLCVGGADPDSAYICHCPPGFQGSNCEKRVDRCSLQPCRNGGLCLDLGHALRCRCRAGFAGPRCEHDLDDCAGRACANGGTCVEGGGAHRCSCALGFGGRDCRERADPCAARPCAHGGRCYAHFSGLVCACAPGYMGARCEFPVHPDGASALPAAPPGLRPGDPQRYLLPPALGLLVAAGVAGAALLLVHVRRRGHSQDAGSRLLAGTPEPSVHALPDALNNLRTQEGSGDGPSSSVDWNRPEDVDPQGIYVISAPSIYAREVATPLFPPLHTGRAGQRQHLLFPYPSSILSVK
Assay: FACS on SHP77 cells
Attribute Measured: MFI at 0.0064 nM (MFI)
Answers are plain numbers, in MFI.

- Binder: "Hab015VL4VH6a-hFc (scFv, part only; not given: scFv linker and human IgG1 Fc, V domains shown, not shown: another chain or arm of the molecule; a dimerising Fc or GST; small tags and cut ends) VL: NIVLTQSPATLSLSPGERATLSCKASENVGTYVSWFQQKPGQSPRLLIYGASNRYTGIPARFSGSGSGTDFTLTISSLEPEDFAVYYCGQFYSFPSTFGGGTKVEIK VH: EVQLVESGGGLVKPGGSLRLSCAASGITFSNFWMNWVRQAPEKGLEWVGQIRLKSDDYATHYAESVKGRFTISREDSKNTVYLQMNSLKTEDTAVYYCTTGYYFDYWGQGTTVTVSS"
  MFI at 0.0064 nM / MFI: 114
- Binder: "BI3 (antibody, human IgG1, kappa, V domains shown) VH: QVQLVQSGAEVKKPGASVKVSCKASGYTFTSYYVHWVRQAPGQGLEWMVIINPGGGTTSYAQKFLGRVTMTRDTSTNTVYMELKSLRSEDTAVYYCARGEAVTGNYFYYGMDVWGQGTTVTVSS VL: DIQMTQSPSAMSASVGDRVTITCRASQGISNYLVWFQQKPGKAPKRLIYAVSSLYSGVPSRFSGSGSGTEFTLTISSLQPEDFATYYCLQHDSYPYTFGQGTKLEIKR"
  MFI at 0.0064 nM / MFI: 105
- Binder: "Hab015VL5VH1b-hFc (scFv, part only; not given: VL-VH linker and human IgG1 Fc, V domains shown, not shown: another chain or arm of the molecule; a dimerising Fc or GST; small tags and cut ends) VL: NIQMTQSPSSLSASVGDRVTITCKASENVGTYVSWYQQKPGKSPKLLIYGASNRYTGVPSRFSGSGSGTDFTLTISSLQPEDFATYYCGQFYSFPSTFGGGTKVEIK VH: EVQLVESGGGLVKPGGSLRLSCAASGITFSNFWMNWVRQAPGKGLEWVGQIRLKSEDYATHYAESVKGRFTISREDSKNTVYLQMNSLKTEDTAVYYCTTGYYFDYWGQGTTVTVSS"
  MFI at 0.0064 nM / MFI: 118
- Binder: "Hab009VL1aVH1-hFc (scFv, part only; not given: scFv linker and human IgG1 Fc, V domains shown, not shown: another chain or arm of the molecule; a dimerising Fc or GST; small tags and cut ends) VL: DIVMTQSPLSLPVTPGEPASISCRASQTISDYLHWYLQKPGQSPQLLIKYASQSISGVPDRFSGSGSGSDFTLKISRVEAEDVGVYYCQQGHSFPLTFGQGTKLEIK VH: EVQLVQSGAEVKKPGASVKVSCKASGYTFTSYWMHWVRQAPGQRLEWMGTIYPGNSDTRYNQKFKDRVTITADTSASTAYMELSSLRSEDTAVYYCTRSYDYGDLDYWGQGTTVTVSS"
  MFI at 0.0064 nM / MFI: 129
- Binder: "Hab006VL4VH1-hFc (scFv, part only; not given: scFv linker and human IgG1 Fc, V domains shown, not shown: another chain or arm of the molecule; a dimerising Fc or GST; small tags and cut ends) VL: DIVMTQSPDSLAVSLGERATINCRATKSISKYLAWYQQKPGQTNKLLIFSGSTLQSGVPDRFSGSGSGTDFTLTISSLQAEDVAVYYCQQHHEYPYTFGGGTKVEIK VH: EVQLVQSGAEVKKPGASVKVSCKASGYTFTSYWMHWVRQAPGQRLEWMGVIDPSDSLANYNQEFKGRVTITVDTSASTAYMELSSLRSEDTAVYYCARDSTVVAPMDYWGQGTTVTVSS"
  MFI at 0.0064 nM / MFI: 305

Okay, here is my list. What is MFI at 0.0064 nM for each of these?
1. Hab008L1H2a-hFc (scFv, part only; not given: VL-VH linker and human IgG1 Fc, V domains shown, not shown: another chain or arm of the molecule; a dimerising Fc or GST; small tags and cut ends) VL: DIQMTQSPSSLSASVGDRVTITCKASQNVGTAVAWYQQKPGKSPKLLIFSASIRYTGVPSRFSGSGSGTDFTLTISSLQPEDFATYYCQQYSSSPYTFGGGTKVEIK VH: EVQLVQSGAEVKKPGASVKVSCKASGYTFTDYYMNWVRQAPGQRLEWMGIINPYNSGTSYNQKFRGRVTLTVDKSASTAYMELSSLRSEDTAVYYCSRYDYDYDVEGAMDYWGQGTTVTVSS
2. Hab013VL2VH2a-hFc (scFv, part only; not given: scFv linker and human IgG1 Fc, V domains shown, not shown: another chain or arm of the molecule; a dimerising Fc or GST; small tags and cut ends) VL: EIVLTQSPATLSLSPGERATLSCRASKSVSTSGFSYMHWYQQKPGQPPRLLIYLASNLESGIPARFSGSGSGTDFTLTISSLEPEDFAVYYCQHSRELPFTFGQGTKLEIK VH: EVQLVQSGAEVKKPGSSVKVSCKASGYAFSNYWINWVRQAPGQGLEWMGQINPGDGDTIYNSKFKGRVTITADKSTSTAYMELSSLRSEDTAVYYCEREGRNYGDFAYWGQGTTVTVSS

[121, 131]

For each of the items listed, what is its MFI at 0.0064 nM?
1. Hab015VL5VH6a-hFc (scFv, part only; not given: scFv linker and human IgG1 Fc, V domains shown, not shown: another chain or arm of the molecule; a dimerising Fc or GST; small tags and cut ends) VL: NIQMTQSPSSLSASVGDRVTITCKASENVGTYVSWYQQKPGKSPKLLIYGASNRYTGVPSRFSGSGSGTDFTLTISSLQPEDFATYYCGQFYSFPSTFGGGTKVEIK VH: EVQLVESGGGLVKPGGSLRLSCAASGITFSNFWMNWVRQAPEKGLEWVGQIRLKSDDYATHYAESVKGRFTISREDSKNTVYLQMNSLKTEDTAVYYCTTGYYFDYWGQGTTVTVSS
2. Hab015VL4VH1a-hFc (scFv, part only; not given: scFv linker and human IgG1 Fc, V domains shown, not shown: another chain or arm of the molecule; a dimerising Fc or GST; small tags and cut ends) VL: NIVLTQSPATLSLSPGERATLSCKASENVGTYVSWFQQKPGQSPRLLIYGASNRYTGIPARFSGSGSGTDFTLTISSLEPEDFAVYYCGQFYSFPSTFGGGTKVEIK VH: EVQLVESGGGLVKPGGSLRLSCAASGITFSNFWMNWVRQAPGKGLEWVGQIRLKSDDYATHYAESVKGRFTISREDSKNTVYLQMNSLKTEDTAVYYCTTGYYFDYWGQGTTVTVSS
3. Hab015VL5VH1a-hFc (scFv, part only; not given: scFv linker and human IgG1 Fc, V domains shown, not shown: another chain or arm of the molecule; a dimerising Fc or GST; small tags and cut ends) VL: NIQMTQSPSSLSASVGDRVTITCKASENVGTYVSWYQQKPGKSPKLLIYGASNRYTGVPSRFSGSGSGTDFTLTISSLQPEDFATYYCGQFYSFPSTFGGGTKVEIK VH: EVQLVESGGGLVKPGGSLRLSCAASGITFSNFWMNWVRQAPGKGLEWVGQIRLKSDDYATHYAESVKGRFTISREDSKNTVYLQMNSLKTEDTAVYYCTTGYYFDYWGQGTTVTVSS

117
112
122
